experiment: Induction of [14C]-oleic acid oxidation in human differentiated skeletal muscle cells assessed as accumulation of oxidized [14C]-oleic acid after 4 hrs by liquid scintillation counting; type: functional
pEC50: −log10 of the molar value.
We use 9 as the dividing line for pEC50: on or above the line is rule met, below is rule not met.

[in] // inclusive: pEC50 at least 9? input: Cc1cc(SCc2cn(-c3ccc(OC(F)(F)F)c(Cl)c3)nn2)ccc1OCC(=O)O
[out] rule not met

[in] // inclusive: pEC50 at least 9? input: Cc1cc(SCc2sc(-c3ccc(C(F)(F)F)cc3)nc2C)ccc1OCC(=O)O
[out] rule met

[in] // inclusive: pEC50 at least 9? input: Cc1cc(SCc2cn(-c3ccc(OC(F)(F)F)cc3)nn2)ccc1OCC(=O)O
[out] rule not met
